Provide the reported log2 fold change of degron read counts of each item.
Measured target: T1, CRBN, Q96SW2;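 note: pooled lentiviral library of zinc finger degron-EGFP fusions in mCherry-positive Jurkat cells, FACS-sorted after compound exposure, with degron abundance counted by next-generation sequencing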
T1 chain: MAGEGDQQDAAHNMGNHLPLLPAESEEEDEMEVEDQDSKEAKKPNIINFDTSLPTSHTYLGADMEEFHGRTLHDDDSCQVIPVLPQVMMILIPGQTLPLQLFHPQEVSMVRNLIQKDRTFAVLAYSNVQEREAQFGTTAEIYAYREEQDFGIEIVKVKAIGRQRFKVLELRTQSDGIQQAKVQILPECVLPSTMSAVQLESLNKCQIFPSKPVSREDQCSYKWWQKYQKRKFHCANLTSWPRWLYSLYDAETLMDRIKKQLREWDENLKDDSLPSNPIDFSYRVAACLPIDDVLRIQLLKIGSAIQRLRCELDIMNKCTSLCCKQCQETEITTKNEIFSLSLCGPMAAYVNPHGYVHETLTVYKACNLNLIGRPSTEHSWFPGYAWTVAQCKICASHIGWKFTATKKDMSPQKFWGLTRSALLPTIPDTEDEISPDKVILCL
Experiment notes: log2 fold change of degron read counts, EGFP-low vs EGFP+ sorted cells (limma voom), compound-induced degradation; higher = more compound-induced degradation of the degron-EGFP fusion; degrons are variants of IKZF1/3 zinc finger 2; compound dose not given here
Experimental parameters: Jurkat; 18 h; compound: compound 22 (5-morpholino-thalidomide)
Over roughly 8,300 sequences, “log2 fold change of degron read counts, EGFP-low vs EGFP+ sorted cells (limma voom), compound-induced degradation” has its median near -1.1; the highest 2% begin near 3.2. This is one part of a sample in which the highest values are shown more often than they occur.
Give bare numbers.

# Seq text, log2 fold change of degron read counts
measured = [
    ("FKCPICGAAFTQKGNLLRHIKL [46F_47K_49P_50I_52G_53A_54A_55F_67L_, Q9UKT9]", -0.319),
    ("FHCPICGAAFTQKGNLLRHIKL [46F_47H_49P_50I_52G_53A_54A_55F_67L_, Q9UKT9]", 2.78),
    ("FGCPICGAAFTQKGNLLRHIKL [46F_47G_49P_50I_52G_53A_54A_55F_67L_, Q9UKT9]", 2.61),
    ("FVCPICGAAFTQKGNLLRHIKL [46F_47V_49P_50I_52G_53A_54A_55F_67L_, Q9UKT9]", 2.85),
    ("FWCPICGAAFTQKGNLLRHIKL [46F_47W_49P_50I_52G_53A_54A_55F_67L_, Q9UKT9]", 3.3),
]

Provide the reported log2 fold change of degron read counts of each entry below, same order.
1. FFCPICGAAFTQKGNLLRHIKL [46F_47F_49P_50I_52G_53A_54A_55F_67L_, Q9UKT9]
2. FQCPICGAAFTQKGNLLRHIKL [46F_47Q_49P_50I_52G_53A_54A_55F_67L_, Q9UKT9]

1: 3; 2: 3.13

Cited source for all entries: the supplement of paper PMC12645437
